B1: CAMK2B (parent)
chain: YQQIKAGAYDFPSPEWDTVTPEAK

Variants of: B1
test.protocol: protein stability index of a GFP-peptide fusion (GPS, HEK-293T) (PSI 1-6); higher = more stable;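 further: lentivirally expressed fusions sorted by FACS into six bins by GFP to DsRed ratio, PSI derived from sequencing read proportions per bin multiplied by bin number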
details: c terminus: a fixed tail appended
Label rule, in plain words: protein stability index of 3 and up is 1, under 3 is 0.

YQQIKAGAYDFPSPEWDTVTPEAA
1
YQQIKAGAYDKPSPEWDTVTPEAK
1
YQQMKAGAYDFPSPEWDTVTPEAK
1
YQQLKAGAYDFPSPEWDTVTPEAK
1
YQQIKAGAYGFPSPEWDTVTPEAK
0

Enquiry: Test whether the variant YQQIKAGAYDFPSPEWDTWTPEAK records protein stability index of 3 or higher.
Return: 0

Enquiry: Test whether the variant YQQIKAGAYDFPSPEWDEVTPEAK records protein stability index of 3 or higher.
Return: 1

Enquiry: Test whether the variant YQQIKAGAYDFPSPEWDTCTPEAK records protein stability index of 3 or higher.
Return: 1

Enquiry: Test whether the variant YQQIKAGAYDFPSPEWDTVTWEAK records protein stability index of 3 or higher.
Return: 0

Attribution: the supplement of paper PMC10567573
